The following variants are listed with their measured self-cleavage values.
B1: HDV Ribozyme (parent)
chain: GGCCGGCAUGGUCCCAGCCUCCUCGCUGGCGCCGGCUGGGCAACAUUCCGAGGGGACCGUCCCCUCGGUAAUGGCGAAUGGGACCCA

- Variants of: B1
- EXPERIMENT NOTES: self-cleavage, relative activity (ratio to wild type); higher = more cleavage; co-transcriptional
Keep the answer to the number alone.

Some variants with known self-cleavage results, for comparison:
>>> reading("GGCCGGCAUGGUCCCAGCCUCCUCGCUGGCGCCGGCUGGGCAACAUUCCGAGGGGACCGCCCUCUCGGUAAUGGCGAAUGGGACCCA [U60C C63U]")
0.98
>>> reading("GGCCGGCAUGGUCCCAGCCUCCUCGCUGGCGCCGGCUCGACAACAUUCCGAGGGGACCGUCCCCUCGGUAAUGGCGAAUGGGACCCA [G38C G40A]")
0.0978

Now for the variant whose self-cleavage we want.
Task: # get_value(readout='self-cleavage', item= GGCCGGCAUGGUCCCAGCCUCCUCGCUGGCGCCGGCUGGGCACCAUUCCGAGGGGACCCUCCCCUCGGUAAUGGCGAAUGGGACCCA [A43C G59C] )
Result: 0.322
